Tested on: NCI/ADR-RES ovarian
Assay: NCI-60 one-dose screen, 48 h (100 = growth as untreated, 0 = no growth, -100 = all killed)
Details: 10 µM unless noted
The panel holds about 83,000 compounds, 20% with a hit somewhere; the sample as a whole holds those more often.
Exam item: assign t to entries whose growth is below 70% and f to entries at or above 70%. Note that a value of exactly 70% receives f.

{"compound": "Oc1c(Cl)cc(Oc2cc(Cl)c(O)c(CN3CCOCC3)c2)cc1CN1CCOCC1", "label class": "f"}
{"compound": "Nc1ccccc1-c1ccn[nH]1", "label class": "f"}
{"compound": "COc1ccc2nc(NC(=O)CN3CCn4c(nnc4C(F)(F)F)C3)sc2c1", "label class": "f"}
{"compound": "CC[C@@H](c1ccc(O)c(O)c1)[C@@H](CC)c1ccc(O)c(O)c1", "label class": "f"}
{"compound": "Cc1ccc(-c2csc(N)n2)cc1", "label class": "f"}

Prompt line: Lab note: confirm whether the reported growth for this compound is below 70%, equality not counting. compound: `O=C1N=C(N2CCOCC2)S/C1=C\c1cn(-c2ccccc2)nc1-c1ccccc1`
Response line: t

Prompt line: For `CC(=O)Nc1cc2c3c(cccc3c1)-c1ccccc1-2` , is the recorded growth below the cut-off of 70%?
Response line: f

Prompt line: Please let me know if `COc1ccc2c(c1)[n+](=O)c(/C=C/C(=O)c1cc(OC)c(OC)c(OC)c1)c(C)n2[O-]` shows growth below 70%.
Response line: t

----------
Tested on: MCF7 breast
Assay: NCI-60 one-dose screen, 48 h (100 = growth as untreated, 0 = no growth, -100 = all killed)
Settings: 10 µM unless noted
The panel holds about 83,000 compounds, 20% with a hit somewhere; the sample as a whole holds those more often.
Provide the reported growth of each item.
One number for each entry, in %.

// solved cases for growth follow
{"compound": "c1ccc(CN=C(NCc2ccccc2)NCc2ccccc2)cc1", "growth, %": 36.5}
{"compound": "COc1ccc2nc(N/N=C(\\C)c3ccccn3)cc(C)c2c1", "growth, %": -74.6}
{"compound": "COc1c(O)cc2c(c1CC=C(C)C)OC(=O)c1c(cc(O)c(CC=C(C)C)c1O)O2", "growth, %": 10.6}

For each entry beneath this line, provide reported growth.
1. COC(=O)c1cc2c(/C=C3/NC(=S)NC3=O)coc2n1C
2. CCN1CC2=C(Nc3nc(SC)[nH]c(=O)c3C2c2cc(OC)c(OC)c(OC)c2)/C(=C/c2cc(OC)c(OC)c(OC)c2)C1 (stereo unspecified)
3. Cc1ccc(N/N=C(/C(=O)c2ccc(Cl)cc2)c2nc(C)cc(=O)[nH]2)cc1

Response line:
81.3
86.2
91

----------
Test system: LOX IMVI melanoma
Test: NCI-60 one-dose screen, 48 h
Details: 10 µM unless noted
This is part of a sample that, as a whole, favours compounds with a hit. Of some 83,000 tested, about 20% had one in any assay. Calls of active or inactive are those of the source. How the source made its calls: active means growth percent below 10; inactive means the rest.
Select the matching outcome among Y (active), N (inactive)

Here's what some known entries look like.
{"compound": "c1ccc2nc(Cn3c[n+](Cc4ccc5ccccc5n4)c4ccccc43)ccc2c1", "target": "LOX IMVI melanoma", "label class": "N"}
{"compound": "CCN(CC)c1ccc(/C=C/C(=O)c2cccc(NS(C)(=O)=O)c2)cc1", "target": "LOX IMVI melanoma", "label class": "N"}
{"compound": "OCCCc1n(Cc2ccc3ccccc3c2)c2ccccc2[n+]1Cc1ccc2ccccc2c1", "target": "LOX IMVI melanoma", "label class": "Y"}

Prompt line: Query: recorded result category for `Cc1[nH]c(=O)[nH]c(=O)c1CCSSCCc1c(C)[nH]c(=O)[nH]c1=O` in this test
Response line: N

Prompt line: Could you kindly confirm the outcome this assay logged for `Cc1cc(=O)[nH]c(/C(=N/Nc2ccccc2)C(=O)c2ccc(Cl)cc2)n1` ?
Response line: N

Prompt line: Test call, this compound: NS(=O)(=O)c1cc(C2(O)NC(=O)c3ccccc32)ccc1Cl (stereo unspecified)
Response line: N

Prompt line: # fetch the recorded call for `COc1cc(OC)c2c(c1Cl)O[C@]1(C2=O)C(OCc2ccccc2)=CC(=O)C[C@H]1C` here
Response line: N

Prompt line: Entry `COC(=O)[C@H](Cc1cn(C)cn1)NC(=O)[C@H](C)NC(=O)Nc1cc(C(F)(F)F)cc(C(F)(F)F)c1` : call = ?
Response line: Y

Prompt line: Can you look up the reported call for `CN1CCN(CCCOc2ccc3ncnc(Nc4ccc(OCc5cccc(F)c5)c(Cl)c4)c3c2)CC1` for me?
Response line: Y

Prompt line: Entry COc1ccc(C2=NN(C(C)=O)C(c3c(C)nn(-c4ccccc4)c3N3CCOCC3)C2)cc1 (stereo unspecified) : call = ?
Response line: N

Prompt line: // param item: `N#Cc1ncc(-c2ccc(C(F)(F)F)cc2)c(NC2CCCCCC2)n1` ; yields the recorded call
Response line: N

Prompt line: I'd appreciate the recorded outcome for `NC(=O)NC1(C(=O)O)CCCC1` from this test.
Response line: N

Prompt line: Hello, I am checking results. What call was entered for `Oc1c(Cl)cc(Oc2cc(Cl)c(O)c(CN3CCOCC3)c2)cc1CN1CCOCC1` ?
Response line: N

Prompt line: Lab log entry: `O=c1c2c(=NCCCN3CCCC3)cc3c(=O)n(CCCN4CCCC4)c(=O)c4c(NCCCN5CCCC5)cc(c(O)n1CCCN1CCCC1)c2c4-3` — outcome as called in the assay?
Response line: Y

Prompt line: Outcome? `O=C1Nc2ccc(Cl)cc2[C@@](C#CC2CC2)(C(F)(F)F)O1`
Response line: N

Prompt line: Recorded test call requested for `[N-]=[N+]=NCc1ncc(-c2ccc(C(F)(F)F)cc2)c(NC2CCCCCC2)n1`
Response line: N

Prompt line: Which outcome was entered for the compound C1CCC(C(CC2CCCCN2)C2CCCCC2)CC1 (stereo unspecified) in this test?
Response line: Y

----------
System: PC-3 prostate
Test: NCI-60 one-dose screen, 48 h (100 = growth as untreated, 0 = no growth, -100 = all killed)
Conditions: 10 µM unless noted
Procedure: Growth inhibition of the PC-3 human tumor cell line is measured as a screen for anti-cancer activity. Cells are grown in 96 well plates and exposed to the test compound for 48 hours. Compounds are tested at a single concentration, which is 10^-5 M for most compounds. The reported endpoint is percent growth (GI% or GIPRCNT), where numbers from 0 - 100% represent growth inhibition, and numbers from -100% - 0 represent cell death. For example, a value of 40 represents 60% growth inhibition. […]
The panel holds about 83,000 compounds, 20% with a hit somewhere; the sample as a whole holds those more often.
Kindly note that classification relies on growth with these boundaries: low (below 30%), moderate (30% to below 90%), high (90% or more)

Please review the entries below; each comes with its answer.
{"compound": "Cc1ccc(/C=C(/C#N)n2nnc3ncccc32)cc1", "target": "PC-3 prostate", "label class": "low"}
{"compound": "CN1CCC[C@@H]1CCO[C@](C)(c1ccccc1)c1ccc(Cl)cc1", "target": "PC-3 prostate", "label class": "moderate"}
{"compound": "N#Cc1c(NC(=O)c2ccco2)[n+]([O-])c2ccccc2[n+]1[O-]", "target": "PC-3 prostate", "label class": "high"}
{"compound": "Cc1cn(C(C=O)OC(C=O)CO)c(=O)[nH]c1=O (stereo not drawn)", "target": "PC-3 prostate", "label class": "high"}
{"compound": "Nc1nc(Nc2ccccc2SSc2ccccc2Nc2nc(N)nc(-c3ccc(I)cc3)n2)nc(-c2ccc(I)cc2)n1", "target": "PC-3 prostate", "label class": "low"}

Prompt line: Into which bin does this compound go? `CC(C)N(Cc1ccccc1)c1c(S)ssc1=S`
Response line: low

Prompt line: Category of `O=C(CN1CCN(c2ccc(Cl)cc2)CC1)N1CCN(c2nnc(-c3ccccc3)c(-c3ccccc3)n2)CC1` , please.
Response line: low

Prompt line: Tag the class for `CCOC(=O)C(C(=O)OCC)C1CCCCC1`
Response line: high

Prompt line: Bin? `CCC(=O)Nc1cc2c(cc1Cl)-c1ccccc1C2`
Response line: moderate

Prompt line: Into which bin does this compound go? `NC(=O)NC1(C(=O)O)CCCC1`
Response line: high

Prompt line: Category of `O=C(N/N=C/c1cccc(O)c1O)c1ccccc1` , please.
Response line: low

Prompt line: Which category fits this record: `O=C(c1ccc(N2CCOCC2)cc1[N+](=O)[O-])N1CCOCC1`
Response line: high

----------
System: HOP-92 NSCLC
Test: NCI-60 one-dose screen, 48 h
Conditions: 10 µM unless noted
This is part of a sample that, as a whole, favours compounds with a hit. Of some 83,000 tested, about 20% had one in any assay. Active and inactive are the calls of the source. Rule for the calls: active = growth percent below 10; inactive = the rest.
Respond using exactly one of the listed classes: y (active), n (inactive)

Example entries begin here.
{"compound": "O=C(C(=O)N1CCOCC1)c1cn(CCCn2cc(C(=O)C(=O)N3CCOCC3)c3ccccc32)c2ccccc12", "label class": "n"}
{"compound": "CCN(CC)CCSc1ncnc2c1cnn2-c1ccc(S(N)(=O)=O)cc1", "label class": "n"}
{"compound": "CC1CN(CC(O)c2ccc(Br)cc2)CCO1 (stereo not given)", "label class": "n"}

Prompt line: Give the logged outcome of this assay for the following compound: `COc1ccc(CNC(=O)c2c(C)n([O-])c3ccccc3[n+]2=O)cc1`
Response line: n

Prompt line: Lab log entry: COc1cccc(C2=NN(C(C)=O)C(c3cc(OC)c(OC)c(OC)c3)C2)c1 (stereo not given) — outcome as called in the assay?
Response line: y

Prompt line: So what was the verdict on `CC(=O)[C@H]1CC[C@H]2[C@@H]3C[C@H](C)C4=CC(=O)CC[C@]4(C)[C@H]3C(=O)C[C@]12C` in this test?
Response line: n

Prompt line: Each compound tested received a call. Report the one for `COc1c(O)cc2c(c1CC=C(C)C)OC(=O)c1c(cc(O)c(CC=C(C)C)c1O)O2` .
Response line: n

Prompt line: State the result this test recorded for `CCOC(=O)Nc1ccc2c3c(cccc13)-c1ccccc1-2` .
Response line: n

Prompt line: Query: recorded result category for `Cn1c(=O)c2[nH]c(=S)n(Cc3ccccc3)c2n(C)c1=O` in this test
Response line: n

Prompt line: Record lookup: outcome of this test for `CC(C)Sc1nc(Cl)c(C#N)c(-c2ccc(F)cc2)n1` ?
Response line: n
